B1: CPEB3 Ribozyme (parent)
chain: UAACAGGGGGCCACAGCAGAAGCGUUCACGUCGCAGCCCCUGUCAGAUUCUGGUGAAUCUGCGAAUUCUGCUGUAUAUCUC

- Variants of: B1
- experimental-protocol: self-cleavage, relative activity (ratio to wild type); higher = more cleavage; in vitro, sequencing
assay-metric: self-cleavage
Respond with the number and no other words.

> print(dat)
                                    sequence  recorded.value
 1  UAACAGGGGGCCACAGCAGAAGCGUUCACGUCGCAGCCCCUGUCAGAUUCUGGUGAAUCUGCGAAUUCGGCUGUAUAUCUC [U69G]            0.74
 2  UAACAGGGGGCCACAGCAGAAGCGUUCACGUUGCAGCCCCUGUCAGAUUCCGGUGAAUCUGCGAAUUCUGCUGUAUAUCUC [C32U U51C]            0.16
 3  UAACAGGGGGCCACAGCAGAAGCGUUCACGUCGCAUCCCCUGUCAGAUUCUGGUGAAUCUGCGAAUUCUGCUGUAUACCUC [G36U U78C]            0.17
 4  UAACAGGGGGCCACAGCAGAAGCGUUCACGUCGCAGCCCCUGUCAGAUUCUGGUGAAUCUGCGAAUUCCGCUGUAUAUCCC [U69C U80C]            0.52
 5  UAACACGGGGCCACAGCUGAAGCGUUCACGUCGCAGCCCCUGUCAGAUUCUGGUGAAUCUGCGAAUUCUGCUGUAUAUCUC [G6C A18U]            0.07
 6  UACCAGUGGGCCACAGCAGAAGCGUUCACGUCGCAGCCCCUGUCAGAUUCUGGUGAAUCUGCGAAUUCUGCUGUAUAUCUC [A3C G7U]            0.39
 7  UAACAGGGGGCCACAGCAGAAGCGUUCACGUAGCAGCCCCUGUCAGAUUCUGGUGAAUCUGCGAAUUCUGCUAUAUAUCUC [C32A G73A]            0.49
 8  UAACAGGGGGCCACAGCAGAAGCGUUCACGUCGCAGCCCCUGUCAGAUUCUGGUGAAUCUGCGUAUUCUGCGGUAUAUCUC [A64U U72G]            0.37
 9  UAACAGGGGGCCACAGCAGAAGCGCUCACGUCGCAGACCCUGUCAGAUUCUGGUGAAUCUGCGAAUUCUGCUGUAUAUCUC [U25C C37A]            0.46
10  UAACAGGGGGCCACAGCAGAAGCGUUCACGUCGCAGCCCCUGUCAGGUUCUGGUGAAUCUGCGAAUUCUGCUGAAUAUCUC [A47G U74A]            1.21

## Input Return the recorded self-cleavage value; entry: UAACAGGGGGCCACAGCAGAAGCGUUCACGCCGCAGCCCCUGUCAGAUUCUGGUGAAACUGCGAAUUCUGCUGUAUAUCUC [U31C U58A]
## Output 0.31

## Input Return the recorded self-cleavage value; entry: UAACAGGGGGCCACAGCAGAAGCGUUCACGUCGUAGCCCCUGUCAGAUCCUGGUGAAUCUGCGAAUUCUGCUGUAUAUCUC [C34U U49C]
## Output 0.16

## Input Return the recorded self-cleavage value; entry: UAACAGGGGGCCACAGCAGAAGCGUUCGCGUCGCAGCCCCUGUCAGAUUCUGGUGAAUCUGCGAAUUGUGCUGUAUAUCUC [A28G C68G]
## Output 0.14

## Input Return the recorded self-cleavage value; entry: UAACAGGGAGCCACAGCAGAAGCGUUCACGUCGCAGCCCCUGUCAGAUUCUGGUGAAUCUGCGAAUUCUGCUGUAUAUCUU [G9A C81U]
## Output 0.35

## Input Return the recorded self-cleavage value; entry: UAACAGGGGACCACAGCAGAAGCGUUCACGUCGCAGCCCCUGUCAGAUUCUGGUGAGUCUGCGAAUUCUGCUGUAUAUCUC [G10A A57G]
## Output 0.29

## Input Return the recorded self-cleavage value; entry: UAACAGGGGACCACAGCAGAAGCGUUCACGUCGCAGCCCCUGUCAGAUUCUGGUGAAUAUGCGAAUUCUGCUGUAUAUCUC [G10A C59A]
## Output 0.06

## Input Return the recorded self-cleavage value; entry: UAACAGGGGGCCACUGCAGAAGCGUACACGUCGCAGCCCCUGUCAGAUUCUGGUGAAUCUGCGAAUUCUGCUGUAUAUCUC [A15U U26A]
## Output 0.54

## Input Return the recorded self-cleavage value; entry: UAACAGGGGGCCACAGCAGAAGCGUUCACGUCGCGGCCCCUGUCAGAUUCUGGUGAAUCUACGAAUUCUGCUGUAUAUCUC [A35G G61A]
## Output 1.11

## Input Return the recorded self-cleavage value; entry: UAACAGGGAGCCACAGCAGAAGCGUUCACGUCACAGCCCCUGUCAGAUUCUGGUGAAUCUGCGAAUUCUGCUGUAUAUCUC [G9A G33A]
## Output 0.08

## Input Return the recorded self-cleavage value; entry: UAACAGGGGGCCACAGCAGAAGCGUUCACGUCGCAGCCCCUAUCAGAUUCUGGUGAAUCUGCGACUUCUGCUGUAUAUCUC [G42A A65C]
## Output 0.24

## Input Return the recorded self-cleavage value; entry: UAACAGGGGGCCAGAGCAGAAGCGUUCACGUCGCAGCCCGUGUCAGAUUCUGGUGAAUCUGCGAAUUCUGCUGUAUAUCUC [C14G C40G]
## Output 0.1

## Input Return the recorded self-cleavage value; entry: UAACAGCGGGCCACAGCAGAAGCGUUCACGUCGCAGCCCCUGUCAGAUUCUGGUGAAUCUGCGAAUUCUGCUGUAUAUCCC [G7C U80C]
## Output 0.27
